Readings of CTG-3D luminescence at 96 h for the listed molecules
Test system: HCI-027 (organoid from a triple-negative breast cancer xenograft)
experimentSummary: CTG-3D luminescence at 96 h relative to day-0 seeding control (ratio to day 0); higher = more growth / less cytotoxicity; PDxO 3D drug screen, 96 h, CTG-3D normalised to day-0 seeding control.
conditionParameters: 12.5 pM; days in culture: 194

molecule | CTG-3D luminescence at 96 h
C=CCn1c(=O)c2cnc(Nc3ccc(N4CCN(C)CC4)cc3)nc2n1-c1cccc(C(C)(C)O)n1 [adavosertib] | 1.64
NC(=O)c1cccc2cn(-c3ccc([C@@H]4CCCNC4)cc3)nc12 [niraparib] | 2.35
CS(=O)(=O)c1ccc(C(=O)Nc2ccc(Cl)c(-c3ccccn3)c2)c(Cl)c1 [vismodegib] | 2.59
CCc1c2c(nc3ccc(O)cc13)-c1cc3c(c(=O)n1C2)COC(=O)[C@]3(O)CC [SN-38] | 1.81
